- system: T1, recombinant human SOD1 (biomol, Hamburg) (human, UniProt P00441 2-154, limits assumed)
- T1 construct: Bought protein; also called recombinant human superoxide dismutase 1; Recombinant SOD1
- T1 sequence (P00441 2-154 limits assumed): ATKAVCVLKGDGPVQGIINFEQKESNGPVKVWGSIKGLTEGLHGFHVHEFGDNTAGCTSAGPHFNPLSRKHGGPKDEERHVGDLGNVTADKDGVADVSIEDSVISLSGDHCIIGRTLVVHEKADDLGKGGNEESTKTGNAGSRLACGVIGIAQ
- assay: direct ELISA, recombinant SOD1 coated at 20 µg/ml
measurement_name: EC50 (nM)
Respond with the bare value in nM.

What value of EC50 has been recorded for this entry: NI-204.25H3 (antibody, human IgG1, V domains shown) VH: QVQLQESGPGLVKPSETLSLTCTVSGGSISSSYWSWIRQPPGQGLEWIGYIYYSGNTYYNPSLKSRVTISIDTSKTQFSLNLTSVSAADTAVYYCARDGIPGAIGMDVWGQGTTVTVSS VL: QSVLTQPPSVSAAPGQKVNISCSGSSSNIGNNYVSWYQRLPGTAPKLLIYDNNKRPSGIPDRFSGSKSGTSATLGITGLQTGDGADYYCATWDKSLIAVVFGGGTKLTVL
1

// lookup EC50 for NI-204.10D12 (antibody, V domains shown) VH: EVQLVESGGDLVRPGGSLRLSCVASGFTFSNYWMHWVRQAPGQRPVWVSRTNTDGRNTAYADYAKGRFTISRDNAKSTLYLQLNSLRAEDTAVYFCARLRRNVADQITHNYYMDVWGKGTLVTVSS VL: EIVLTQSPGSLAVSLGERATINCKSSQTVLYNNKNYLAWYQQKPGQPPKLLISWASSRESGVPDRFSGSGSGTDFTLTISSLQAEDVAVYYCQHYYGTPVTFGGGTKVEIK
7

Form field: reported EC50 of NI-204.7B3 (antibody, human IgG1, V domains shown) VH: EVQLVQSGGDIVQSGGSLRLSCAASGFVFSSNWMHWVRQRPGKGLEWISLINVDGRTTKYADSVKGRFTISRDNAKKTVYLQMDSLRAEDTAVYYCVKVEGLNWGPGTLVTVSS VL: LPVLTQPPSVSVSPGQTARITCSGDELSKQYAYWYQKKSGQAPVMVVNEDTKRPPGIPERFSGSSSGTTSTLTISGVQAEDEADYYCQSADITGSWVFGGGTKLTVL
42

What value of EC50 has been recorded for this entry: NI-204.10A8 (antibody, human IgG1, V domains shown) VH: EVQLVESGAEVKEPGSSVRVSCKTSGGSFNRHVITWVRQAPGQGLEWMGEIIPFFGTPKYAPKFQGRVTIIADASTSTFFLDVKSLTSEDTALYFCWIVVVSVVQRREDFWGQGILVTVSS VL: EIVLTQSPSSLSASVGDTVTITCRSSQNISNYLSWFQHKPGKAPRILVYAASTLQTGVPSRFSGRGSGTIFTLSITSLQSEDYATYYCQQNDKIPRTFGQGTKVEIK
1
